System: ATP;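 also: ATP exposure 15 min at 22 °C before imaging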
Test: switch fluorescence ratio, 500 uM ATP over buffer (Cy3 cluster intensity, sum of 5 cycles each) (fold (ratio)); higher = stronger signal-on switching upon ATP binding; sequences stand for … in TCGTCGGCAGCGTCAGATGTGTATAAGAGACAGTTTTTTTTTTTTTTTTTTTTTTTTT…TC
Conditions: aptamer strand: ATP DNA aptamer (quencher-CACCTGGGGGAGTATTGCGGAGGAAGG + anchor), 100 nM annealed; ATP concentration: 500 uM
Answer each item with its documented switch fluorescence ratio.
Give the figure by itself; no unit, no explanation.

Task: // map GATCTAGGGC to recorded switch fluorescence ratio (system: ATP);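 also: ATP exposure 15 min at 22 °C before imaging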
Result: 1.02

Task: # repeat for CGGATGGAAA
Result: 0.964

Task: Now give it for TTATCTAGGA too.
Result: 1

Task: Now try TGATGGTCGA .
Result: 1.02

Task: // repeat for ATCTTTGGTG and report
Result: 1.03

Task: Thanks! And GCAGCAAAAG ?
Result: 1.03

Task: Let us now turn to TTGGTATTAT
Result: 0.986

Task: Now the sequence TTTCAGCTTA
Result: 1.15

Task: Follow-up entry: AAGTTCGTAA
Result: 1.03

Task: Query TGGTCGGGGT next
Result: 1.01

Task: And the next one, GACGTTCTTG ?
Result: 0.986

Task: Next up: GACGCGGCGT
Result: 1.02

Task: For CTGGGCGGGG then?
Result: 1.01

Task: What would you report for GTGTCTAGTA ?
Result: 1

Task: Please answer likewise for ATTATGCCTG
Result: 1.06

Task: Can you handle TTACTGGAAC next?
Result: 1.06

Task: Record: ACTCCTGTAA
Result: 1.13

Task: What do we get for TAAAATTAGT ?
Result: 0.994

Task: Entry CGGGCTTGGG please
Result: 0.968

Task: Follow-up item: AAGTGGGCGC
Result: 0.984

Task: How about GGTTTTGACA ?
Result: 0.994

Task: Do the same for TAAGAGCAGG please
Result: 1.1

Task: Entry to check: GCCGGGGAGT
Result: 0.989

Task: Also need ATAATGGAGT , thanks.
Result: 0.983

Task: Then TATCAGACAG ?
Result: 1.01

Task: And CGCCGGGTCC ?
Result: 1.05

Task: Would you mind doing TAAGAATTCG as well?
Result: 1.04

Task: // repeat for GAGTACTGAG and report
Result: 1.16

Task: What would you report for CGGGTCAGTG ?
Result: 0.968

Task: # iterate: TTATCATCTT
Result: 1.01

Task: Could you do the same for TGCTCCGGAG , please?
Result: 1.02

Task: Can you handle TAAGTCCTGT next?
Result: 0.998

Task: Next entry: CGGAGGAGGA
Result: 0.993

Task: One more sequence: GAGGTGGGTG
Result: 1.02

Task: Item: TTTAGAGCTT
Result: 1.02

Task: Request: GTGGGCGGGC
Result: 1.02

* * *

System: ATP;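 also: ATP exposure 15 min at 22 °C before imaging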
Test: switch fluorescence ratio, 500 uM ATP over buffer (Cy3 cluster intensity, sum of 5 cycles each) (fold (ratio)); higher = stronger signal-on switching upon ATP binding; sequences stand for … in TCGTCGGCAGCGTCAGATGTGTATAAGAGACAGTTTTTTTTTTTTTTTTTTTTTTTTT…TC
Settings: aptamer strand: ATP DNA aptamer (quencher-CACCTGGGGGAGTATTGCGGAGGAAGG + anchor), 100 nM annealed; ATP concentration: 500 uM
So I've got a bunch of sequences here, and I need their switch fluorescence ratio values.

Task: Value lookup for switch fluorescence ratio; key = CAATGCATGC
Result: 1.14

Task: Entry TGTTAATATT please
Result: 0.989

Task: Next record, please: TAATAATATT
Result: 1

Task: Again, but for GCGGAAGACG
Result: 1.35

Task: Consider next the sequence AATACGATGC in the same way.
Result: 1.2

Task: Queued: AAAGGCTTGG
Result: 0.992

Task: What about this sequence? CTTTACAGGG
Result: 1

Task: Record: TTCGGCACGT
Result: 1.01

Task: Please do the same for AGGATAAAGT as well.
Result: 0.988

Task: Then what about the sequence TATACGACTC ?
Result: 1.09

Task: What do we get for GAGTATTAAT ?
Result: 1.01

Task: Another: ATAATAGTTG
Result: 1.02

Task: Please do the same for CGCCATGGGT as well.
Result: 0.991

Data credit: the supplement of paper PMC10126150
